- Test Name: M. tuberculosis growth inhibition, HTS (AID 449762);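 note: bacterial growth assessed after seven days of incubation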
- Condition Set: M. tuberculosis H37Rv growth inhibition, 7H9 media; at 25 µM; active compounds read high
Among all 330,000 compounds or so, about 1,900 (0.58%) were called active. Another 4% or so got no clear call; they are omitted. A selection follows. Entries with a potency or affinity are not part of this list.
Record form. Attribute: inhibition. Fill in for each entry.
Numbers only, in %.

Molecule | inhibition (%)
CCOc1ccc(CCNC(=O)c2ccc(CS(=O)Cc3ccc(Cl)cc3)o2)cc1 (stereo not drawn) | -1.24
COc1ccccc1NC(=O)c1ccc(NC(=O)CSc2nncn2C)cc1 | 7.82

Next:
Reported inhibition, molecule COc1ccc(CC(=O)NNC(=O)CCc2ccccc2)cc1OC : ____ 0.55

Origin of values: PubChem BioAssay AID449762
